test system: MS2 coat protein; test: apparent KD of MS2 coat protein; higher = weaker reporter binding; conditions: Eterna round: R107; input ligand: theophylline 20 uM
Label class 1 for high-side apparent KD of MS2 coat protein (at or above 40 nM) and class 0 for low-side apparent KD of MS2 coat protein (below it).

ORDERED RESIDUES | CAT
AUAUGAUCAUGGGAUACCAGAAAUGGUAUUCCUUUAUUUCUUACAUGAGGAUCACCCAUGUUCCCUUGGCAGCUUAUGAUCAUAU [ETHB #5] | class 1

# input Identify whether the reported apparent KD of MS2 coat protein of the following sequence is 40 nM or greater: UUGCUCUCUUCGGCCGCCACUACACGCGAGUUGACGACUGGCGGACAUGAGGAUCACCCAUGUCAUAGGACCGGGAAUCACGCUG [theeternabot_sameState_MS2_Trp_B_11]
# output class 0

# input Has GAAGGAGUUAUGGGUACUCCUUCACUGGAAGGAGCGAGCGAAAGCUCAGGUAGGUCGCCAGAAACAUGAGGAUCACCCAUGUAAU [(A)''-(M)'-(A)'-(Arg1)-(Arg2)-(M1)-(M2)_Design6] a recorded apparent KD of MS2 coat protein greater than or equal to 40 nM?
# output class 1

# input Test whether the sequence AAAGCCUUGCCCGGUGUUCCGAAAGUGGAAGGAGCGCACAUUGGUGCAGGUAGGUCGCCACAUGAGGAUCACCCAUGUCUAGGCU [Isbeat] records apparent KD of MS2 coat protein of 40 nM or higher.
# output class 1

----------
test system: K4 kissing-loop RNA reporter; assay: apparent KD of K4 kissing-loop reporter; higher = weaker reporter binding; conditions: Eterna round: R107; input ligand: tryptophan 2.4 mM
The entries below come with measured apparent KD of K4 kissing-loop reporter values attached.
Provide only the numeric value, understood in nM.

Solved cases (2 shown):
ORDERED RESIDUES | UNITS OF MEASURE | apparent KD of K4 kissing-loop reporter
GGGUCAUGGAACGGAUAAGUGAUGUUUACCCGAGGACCGGUACGGCCGCCACUCGGUCGUUAUUUCCGACGUGCUGGUAAGACUA [theeternabot_exclusion_KL_Trp_A_10] | nM | 475
CCUAUCUCAUACGAUACCAGUCCGAGUGAUGUUCGAACAUAAAUUAGUUUGCCAUAUAAUGACCCUUGGCAGCGUAUGGGAUAGG [Ex Theophylline B K4 12] | nM | 522

# input Quick check: apparent KD of K4 kissing-loop reporter on K4 kissing-loop RNA reporter, item UAAGAUAUGAGGGAUACCAGCCAUAAGGAAAGUGUGAUGAGUGAUGUUCUGACAAGCCAAGGCCCUUGGCAGCUUUAAUAGCAUC [whbob_SS_Theo_B_th76] ?
# output 203

# input # query: apparent KD of K4 kissing-loop reporter | item AUGUCUUAUAAACUCGUGGUUUCGAUCGAUACCAGUAGCGAGAGUUACCCUUGGCAGCGACAUGAGUGAUGUUCAUGUACGAAGA [KL-XTheoA4] | system: K4 kissing-loop RNA reporter
# output 92.9

# input API: value(readout= apparent KD of K4 kissing-loop reporter, system= K4 kissing-loop RNA reporter, query= GCCAGUGAUGUUGGCAUUUCGAGCCAUGAAGGAGCGCACGGAAGUGCAGGUAGGUCGCAUGGUACUUAGGAUAUUAUCCUAAGUA [Antearxe] );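 also: bound reporter read as fluorescence of individual clusters on recovered sequencing chips by microscopy, with normalized cluster intensities fitted with a binding model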
# output 144

# input What value of apparent KD of K4 kissing-loop reporter on K4 kissing-loop RNA reporter does GCGCAUGUUAAAGGAUAUAGCAGGUGAUACAAGAAAGUGAGUGAUGUUUAUGUAGAUGAUGAUAUGUUAGAAGGUUAACAAACGC [abcdefghijklmno] have?
# output 564

----------
system: MS2 coat protein; assay: apparent KD of MS2 coat protein; higher = weaker reporter binding; conditions: Eterna round: R101; input ligand: FMN 200 uM
# apparent KD of MS2 coat protein per record follows
Numbers only; they are read as nM.

ORDERED RESIDUES | MEASURED METRIC | DATA VALUE
AGGCAGCACUGCUACGUGGCCUCACAUGAGGAUCACCCAUGUAAGGAUAUCGGGUAGCAUUACCACGAGAAGGUACAUAAGAGG [Ceisle] (puzzle (switch architecture): Exclusion NG 3) | apparent KD of MS2 coat protein | 25.8

# input Which apparent KD of MS2 coat protein reading was recorded for the sequence AGGAGAAAUGUAGGAUAUGGGCGGGCGUACGGGCAAAGCGCGUACGCCCGCCCAGAAGGACAUGAGGAUCACCCAUGUUUCCCU [#Lowering the energy 1] (puzzle (switch architecture): Small Loop Exclusion NG 1) ?
# output 16

----------
tested on: MS2 coat protein; assay: apparent KD of MS2 coat protein; designed switch direction (-1 OFF switch, 1 ON switch): 1; higher = weaker reporter binding; details: input ligand: none
A collection of sequences and their measured apparent KD of MS2 coat protein
# unit: nM | format: bare number

ORDERED RESIDUES | UNITS OF MEASURE | apparent KD of MS2 coat protein
GCGAGCGUACUUGCUACAUGAGGAUCACCCAUGUUUGAUGGACAGGAUAUGGUACCGUUUCGGUACCAGAAGGGUUCACAUGUA [JL SSNG3 3.79] (Eterna round: R96, puzzle: Same State NG 3) | nM | 214
GGAGCCGGCACUGAGGAUAUUCAUAUUAAAACAUGAGGAUCACCCAUGUAGGCCAGAAGGCCUUGGGAGAAGGCAGGUCGGCUCG [Arinin] (Eterna round: R96, puzzle: Same State 2) | nM | 283

Next sequence, please.
# input For MS2 coat protein, provide apparent KD of MS2 coat protein of CGGAAAAUCGUAGGAUAUCUAGGAUAUGAACGAGGAUCACCCGAGCAGCAUCAGCGCAUCAGAGGAGAGAAGGACGAUGAUGCG [pwkr ssNG2 2F5 2FMN.5] (Eterna round: R96, puzzle: Same State NG 2) please.
# output 1510

----------
Collected apparent KD of MS2 coat protein values appear next to each entry.
system: MS2 coat protein; assay: apparent KD of MS2 coat protein; designed switch direction (-1 OFF switch, 1 ON switch): -1; higher = weaker reporter binding; conditions: input ligand: FMN 200 uM
Write the number in nM without appending the unit.

Check out these entries, answers already filled in.
ORDERED RESIDUES | UNITS OF MEASURE | apparent KD of MS2 coat protein
AUAAUGUCAGGAUAUCAGUCGUACAGCUGCGGCUGUACGACUGAGAAGGGACAUGAGGAUCACCCAUGUGGUCA [E4/6-A3] (Eterna round: R97, puzzle: Exclusion 4) | nM | 20.2
UGGGAGGGAGGAUAUACGAAAGUUAUUCUCAUGUCAGACCCACAUGAGGAUCACCCAUGUAGAAGGCCCGGGUC [EX2 B.17] (Eterna round: R97, puzzle: Exclusion 2) | nM | 358

Let us examine a further case.
# input # query: apparent KD of MS2 coat protein of entry CUCAUACAUGAGGAUCACCCAUGUGAGGAUAUACUCCGCACCACACAGGUCGGGUAGCGUAGAAGGUAUUGGGU [Eternabot (L1) Solution 85] (Eterna round: R97, puzzle: Exclusion 1)
# output 96.3

----------
system: MS2 coat protein; assay: apparent KD of MS2 coat protein; designed switch direction (-1 OFF switch, 1 ON switch): -1; higher = weaker reporter binding; details: input ligand: microRNA oligo, concentration not stated
Mark condition met for reported apparent KD of MS2 coat protein of 50 nM or greater; mark condition not met for anything smaller.

Examples from the recorded data:
ORDERED RESIDUES | CAT
AAACGGCAUAGAGGAUAUGCUUACCUGGGUCGUCUUCAAACAUGAGGAUCACCCAUGUAGUCGACGCAGAAGGUUAUCAAAGCC [ExNG2 2nd] (Eterna round: R96, puzzle: Exclusion NG 2) | condition not met
CAUCUGUGAGGAUAUGGUGAGUAGUGCCUGAGCGCUGCUCACCAGAAGGCACAUGAGGAUCACCCAUGUAUGAC [JL-ex4-2.01 denovo] (Eterna round: R96, puzzle: Exclusion 4) | condition not met
AAGAAGAUCAAAGGAUAUGGAGCUGAAACGGCGCUAGAAGGUUGUCUAGUGUAACAUGAGGAUCACCCAUGUAGGGACCUCUAA [AK ExNG1-V2-2] (Eterna round: R96, puzzle: Exclusion NG 1) | condition met

# input Has GGAUAUAGGCGAGGAUAUACGCACCACUAACUAGUAGAAGGCGCACAUGAGGAUCACCCAUGUGAUUUCUCAAUAUGAUACACG [Prohibition 71 - Jieux - Exclusion NG 1] (Eterna round: R96, puzzle: Exclusion NG 1) a recorded apparent KD of MS2 coat protein greater than or equal to 50 nM?
# output condition met

# input hey, is apparent KD of MS2 coat protein for this one >= 50 nM? UUUAAUUUAAUUAAGAUCACAUGAGGAUCACCCAUGUAUAUAUAGGAUAUCAGCUCGUGUAGAGCUGAGAAGGAUAUAUACAUA [ExNG3/4-A3] (Eterna round: R96, puzzle: Exclusion NG 3)
# output condition not met
